measured_quantity: melting point

Exam item: # lookup: melting point of CCCc1ccnc2c(=O)[nH]c(-c3cc(S(=O)(=O)NC)ccc3OCC)nc12 [Example 6]
Marked response: 216 to 219 °C

Exam item: # lookup: melting point of CCCc1ccnc2c(=O)[nH]c(-c3cc(S(=O)(=O)N4CCC(C(=O)OCC)CC4)ccc3OCC)nc12 [Example 4]
Marked response: 204 to 205 °C

---

Each item that follows carries a reported melting point.

Some solved cases for reference:
CCCOc1ccccc1-c1nc2nnc(SC)nc2c(=O)[nH]1 :: 195 to 197 °C
CCCOc1ccccc1-c1nc2nc(SC)nnc2c(=O)[nH]1 :: 247 to 249 °C

Proceeding to the next compound to report its melting point.
Exam item: # lookup: melting point of CCCc1ccnc2c(=O)[nH]c(-c3cc(S(=O)(=O)N4CCNCC4)ccc3OCC)nc12
Marked response: 178 to 180 °C
